In this section, each of the sequences is paired with its reported apparent KD of K4 kissing-loop reporter.
System: K4 kissing-loop RNA reporter;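 note: bound reporter read as fluorescence of individual clusters on recovered sequencing chips by microscopy, with normalized cluster intensities fitted with a binding model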
Test: apparent KD of K4 kissing-loop reporter; higher = weaker reporter binding
Settings: Eterna round: R107; input ligand: none

{"sequenceString": "AACCACUCGUUACAUCACUAUCGAGUGGAACGAGGACCGGUACGGCCGCCACUCGGUAUCUUGCAGUGAUGUUGCAAGAAAGAAU [KL-SSTryp-A #dotplot2 strengthened]", "apparent KD of K4 kissing-loop reporter [nM]": 256}
{"sequenceString": "AGGUCACUACUACAGUGAUGUUGUGGAGAGCAGGAUAUGCAGAAAUGCAGAAGGGCUCGCUCUCAGUGACCGAAUGAAACAUUCA [Omei KL FMN A SS A v8]", "apparent KD of K4 kissing-loop reporter [nM]": 712}
{"sequenceString": "UAGUCCUAGUGAUCCUUAUCAAGUGGUGGGCGAGGACCGGUACGGCCGCCACUCGACUAUGCAGUGAUGUUGCAAUCCGGACAAU [Exclusion - Tryptophan A (Freestyle 13)]", "apparent KD of K4 kissing-loop reporter [nM]": 194}
{"sequenceString": "GGAUAGGACAGAGGAUAUGGUAGCUAGGCAAGAAUAACUUGUCUAGCAUCCAUGAGGAGUGAUGUUCCAGAAGGCUGUCCUAUCG [FmnBX 5 - #SwitchBubble #StaticStem]", "apparent KD of K4 kissing-loop reporter [nM]": 211}
{"sequenceString": "AUAAUUAUGACGGCCGCCACUGAGAGUAGUGAUGUUACUCUUUUCCUUUAGUAAUAAUUUUUUAUCAGGACCGGGUUAUUUGAAU [JR_Nu_ExcTryptoB_Sub027]", "apparent KD of K4 kissing-loop reporter [nM]": 70.2}

====

System: MS2 coat protein
Assay: apparent KD of MS2 coat protein; designed switch direction (-1 OFF switch, 1 ON switch): -1; higher = weaker reporter binding
Conditions: Eterna round: R95; input ligand: none
Assign a class from recorded apparent KD of MS2 coat protein; defined classes: lower range = under 20 nM, middle range = from 20 nM up to 40 nM, upper range = 40 nM and over

{"sequenceString": "UUUUUCAGGCCAGAUCCUCACAUGAGGAUCACCCAUGUGCUCGUCUGUUUUCGCUCUUUCUUUUUUUUGGUUGUGCU [Level Boss var2-18] (puzzle: Sensor v3, turn-off variant 1)", "discreteLabel": "upper range"}
{"sequenceString": "AAAACUGCCCAUAACCGCAAGCUUUUUGCUUGUCUUACCACAUGAGGAUCACCCAUGUGACAUGGGCUCCUUAUAAA [Arixeerat] (puzzle: Sensor v3, turn-off variant 2)", "discreteLabel": "lower range"}
{"sequenceString": "AAAAUAAAAGUCAGGAUAUUCCUACAACGACUAAGGAAGAAGGGACAUGAGGAUCACCCAUGUGGUCUUCCGAA [Onesti] (puzzle: Brourd's mod of Exclusion 4)", "discreteLabel": "lower range"}
{"sequenceString": "CCUUUGUCAGGAUAUCAGAAAACGCUCGUAGGGAGCGCAAAUGAGAAGGGACAUGAGGAUCACCCAUGUAAAGA [Edmareen] (puzzle: Exclusion 4)", "discreteLabel": "upper range"}
{"sequenceString": "GCAGGAUAAGUCAGGAUAUACCUAUGGAUACAUAGGUAGAAGGGACAUGAGGAUCACCCAUGUGACUCACCUGC [Fiskers BMX 4 - 62] (puzzle: Brourd's mod of Exclusion 4)", "discreteLabel": "middle range"}
{"sequenceString": "UUACAAUGUCGCUUAAUAGCUUUUUGCUCGUCUUAUAUUACAUGAGGAUCACCCAUGUAGAUCAUGUGGCGUGACCU [JL ViennaUCT Maridi mod 7] (puzzle: Sensor v3, turn-off variant 2)", "discreteLabel": "upper range"}
{"sequenceString": "GCAUGGAGACAGGAUAUCCGCGCGAACAAAAUAGGAGAAGGGUCUACAUGAGGAUCACCCAUGUGACGGUAUCC [Aedenqu] (puzzle: Exclusion 6)", "discreteLabel": "middle range"}
{"sequenceString": "GAUGGAGAGCAGGAUAUCUUGGGUAAGCAUCAUAGAGAAGGGCUCACAUGAGGAUCACCCAUGUGGUCCUAGAA [Ateedza] (puzzle: Exclusion 6)", "discreteLabel": "lower range"}
{"sequenceString": "UUAAUGUGAGGAUAUGGUAAAGAUAGAAUGAUGAAAGAACUCCAGAAGGCACAUGAGGAUCACCCAUGUAGAUG [Mat - Exclusion 4 - Mod of JL - D28] (puzzle: Exclusion 4)", "discreteLabel": "upper range"}
{"sequenceString": "UACUAAAAGGAGGAUAUCGUAUCGGAAACGAUACGAGAAGGCUUAACAUGAGGAUCACCCAUGUUCUUCAAUAU [Mat - Exclusion 6 - Eli Mod - D92] (puzzle: Exclusion 6)", "discreteLabel": "lower range"}

====

Tested on: MS2 coat protein
Test: apparent KD of MS2 coat protein; designed switch direction (-1 OFF switch, 1 ON switch): -1; higher = weaker reporter binding
Details: Eterna round: R95; input ligand: FMN 200 uM
In this section, each of the sequences is paired with its reported apparent KD of MS2 coat protein.
experimentalReadout: apparent KD of MS2 coat protein (nM)

{"sequenceString": "GCCGUGCAAGGAUAUCGCGGAAAGAACAUGAGGAUCACCCAUGUGAUCACCUUCUAAAUGCGAGAAGGUGCUAAAA [Axebied] (puzzle: Exclusion 5)", "readoutNumber": 75.7}
{"sequenceString": "GAUUAUGCGAGCUUUAGGGACAUGAGGAUCACCCAUGUUCGUCUUAUUGGUCUAGGUGCACUGACAUACCUAAAUCU [JMF 91] (puzzle: Sensor v3, turn-off variant 1)", "readoutNumber": 20.3}
{"sequenceString": "UUACAAUGUCGCUUAAUAGCUUUUUGCUCGUCUUAUAUUACAUGAGGAUCACCCAUGUAGAUCAUGUGGCGUGACCU [JL ViennaUCT Maridi mod 7] (puzzle: Sensor v3, turn-off variant 2)", "readoutNumber": 206}

====

System: MS2 coat protein
Assay: apparent KD of MS2 coat protein, switch OFF state (with FMN for OFF switches, without FMN for ON switches); designed switch direction (-1 OFF switch, 1 ON switch): 1; higher = weaker reporter binding
Conditions: FMN input: 0 or 200 uM; Eterna round: R93 (includes R88 designs)
In this section, each of the sequences is paired with its reported apparent KD of MS2 coat protein.

{"sequenceString": "AUAUAUAAAAGGUAGGAUAUUCUAAAAUAAACAUGAGGAUCACCCAUGUAAAGAAAGAAACUCAUGGAGAAGGACCAUAUAUAUA [ss2 5th modifying Eli's mod of Tesla]", "apparent KD of MS2 coat protein (nM)": 156}
{"sequenceString": "AGAUCUAGAAGGUAGGAUAUGUGAAAAAAAACAUGAGGAUCACCCAUGUGAUGAAUAAAAAGAAAAUAGAAGGACCAUCUAGAUC [Cross swing 1]", "apparent KD of MS2 coat protein (nM)": 59}
{"sequenceString": "AGAAGACAUGAGGAUCACCCAUGUGCACGUGGAGGAGGAUAUGCUAGUAGAAGAUAGAAUGCAGAAGGCCUAAGAA [Mat - Mod]", "apparent KD of MS2 coat protein (nM)": 38.5}
{"sequenceString": "AUAUAUAUAAGACAGGAUAUCCUAAAGUAAACAUGAGGAUCACCCAUGUAAAGAAAGAAACUCAUGGAGAAGGGUCAAUAUAUAU [Mat - Same State 2 - Tesla mod - D81]", "apparent KD of MS2 coat protein (nM)": 48.6}
{"sequenceString": "AUAUAUAUAAGGUAGGAUAUCCAAAAAUCCACAUGAGGAUCACCCAUGUAAAGAAAGAAAAAAUGGGAGAAGGACCAUAUAUAUA [77%, More Tesla, 6]", "apparent KD of MS2 coat protein (nM)": 31.9}
{"sequenceString": "CGAAGACAUGAGGAUCACCCAUGUCGUCGUAACAGAGGAUAUGGGAGCGCCAAGGGCGCAUCAGAAGGCUGAAAAC [Beusle]", "apparent KD of MS2 coat protein (nM)": 25.1}

====

In this section, each of the sequences is paired with its reported apparent KD of MS2 coat protein.
Tested on: MS2 coat protein
Assay: apparent KD of MS2 coat protein; higher = weaker reporter binding
Details: Eterna round: R107; input ligand: tryptophan 2.4 mM

{"sequenceString": "ACGGAUCGGAAACGAUCCGCGGCAAGGGUACGAGGACCGGUACGGCCGCCACUCGGCUAACAUGAGGAUCACCCAUGUCCGAAGA [ETA NP+V+V2 #8]", "apparent KD of MS2 coat protein / nM": 72.2}
{"sequenceString": "UGCGAUUGCUCAGAUACCAGACAUGAGGAUCACCCAUGUACCAAGGUAAAGAAAUAACGUGUCCCUUGGCAGCUGAGCAAUCGCU [MAT - Exclusion Theophlline B - Mod of Eli - D9]", "apparent KD of MS2 coat protein / nM": 11.3}
{"sequenceString": "GGAUAGGACAGAAGGAGCGACAUGAGGAUCACCCAUGUCUACUAGGACGAAAGUCCGUCAUGUCAGGUAGGUCGCUGUCCUAUCG [#29 Exclusion - Arginine B]", "apparent KD of MS2 coat protein / nM": 81.2}
